Recorded Max Activation % values for a group of binders are listed next.
Biological target: human melanocortin 4 receptor (MC4R) (human, UniProt P32245 1-332)
Sequence (P32245 whole entry): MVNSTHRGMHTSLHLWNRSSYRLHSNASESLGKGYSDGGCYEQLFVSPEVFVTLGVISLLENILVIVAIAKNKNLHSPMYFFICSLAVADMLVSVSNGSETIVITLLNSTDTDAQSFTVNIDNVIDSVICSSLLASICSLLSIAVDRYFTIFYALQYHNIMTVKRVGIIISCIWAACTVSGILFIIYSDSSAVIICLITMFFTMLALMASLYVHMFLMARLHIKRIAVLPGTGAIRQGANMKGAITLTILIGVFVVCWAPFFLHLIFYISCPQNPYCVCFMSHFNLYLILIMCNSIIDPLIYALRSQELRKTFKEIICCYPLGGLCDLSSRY
Test: cell-based or functional assay
Positions of bridges follow the written chain, without caps; N, C: chain ends. Non-standard residues stand in square brackets, D forms with d. d2Nal = N[C@H](Cc1ccc2ccccc2c1)C(=O)O; Nle = CCCC[C@H](N)C(=O)O
Express the result in % but write the number alone.

# Binder, Max Activation %, %
records = [
    ("Ac-[Nle]DPH[d2Nal]RWK[dV][dP]-NH2 (lactam 2-8; SMILES CCCC[C@H](NC(C)=O)C(=O)N[C@H]1CC(=O)NCCCC[C@@H](C(=O)N[C@@H](C(=O)N2CCC[C@@H]2C(N)=O)C(C)C)NC(=O)[C@H](Cc2c[nH]c3ccccc23)NC(=O)[C@H](CCCNC(=N)N)NC(=O)[C@@H](Cc2ccc3ccccc3c2)NC(=O)[C@H](Cc2c[nH]cn2)NC(=O)[C@@H]2CCCN2C1=O) [D1]", 49.4),
]

Now, please, on to the next binder.
Reported Max Activation %, binder Ac-[Nle]DH[d2Nal]RWPK[dV][dP]-NH2 (lactam 2-8; SMILES CCCC[C@H](NC(C)=O)C(=O)N[C@H]1CC(=O)NCCCC[C@@H](C(=O)N[C@@H](C(=O)N2CCC[C@@H]2C(N)=O)C(C)C)NC(=O)[C@@H]2CCCN2C(=O)[C@H](Cc2c[nH]c3ccccc23)NC(=O)[C@H](CCCNC(=N)N)NC(=O)[C@@H](Cc2ccc3ccccc3c2)NC(=O)[C@H](Cc2c[nH]cn2)NC1=O) [D2] : ____
17.6
